All values here come from PubChem BioAssay (NCI).

Test system: OVCAR-8 ovarian
PROTOCOL NOTES: NCI tumour cell line growth inhibition, 48 h; in the data active = GI50 below about 0.43 µM; inactive = the rest
Possible outcomes: active, inactive

INSERT INTO measurements (compound, class_label) VALUES
  ('Nc1nc(N)c2nc(CNc3ccc(C(=O)NC(CCNC(=O)c4ccccc4C(=O)O)C(=O)O)cc3)cnc2n1 (configuration not stated)', 'active'),
  ('O=C(c1ccccc1)c1c2n(c3c1cc(O)c1ccccc13)CCN2', 'inactive'),
  ('CCN(CC)CCNC(=O)C(Cl)=C1C(Cl)=C(Cl)C(Cl)=C1Cl', 'inactive'),
  ('CCOC(=O)Nc1cc(-c2ccc(C)c(NS(C)(=O)=O)c2)nn2c(C)nnc12', 'inactive'),
  ('O=C(Nc1nc(-c2ccccc2Cl)cs1)c1cc(-c2ccc(Cl)cc2)nc2ccc(Cl)cc12', 'inactive'),
  ('C=CCCCC(O)c1ccc(C(O)c2cnc3ccccc3c2)o1 (configuration not stated)', 'inactive'),
  ('COc1ccc(Nc2ncccc2C(=O)NCc2cn(Cc3cccc(Oc4ccccc4)c3)nn2)c(OC)c1', 'inactive'),
  ('COC1=CC(c2ccc[nH]2)=N/C1=C\c1[nH]c(C)c(C)c1CCC(=O)OCc1ccccc1', 'active'),
  ('ClCc1ccc(-c2ccc(Cn3cnc4c(Cl)ncnc43)cc2)cc1', 'inactive'),
  ('[Au+].c1c[n-]cn1.c1ccc([PH+](c2ccccc2)c2ccccc2)cc1', 'inactive'),
  ('CNC(=O)c1cc(Oc2ccc3nc(NC(=O)Nc4cc(C(F)(F)F)cc(C(F)(F)F)c4)sc3c2)ccn1', 'inactive'),
  ('COc1cc(O)c2c(=O)c(OC)c(-c3ccc(OC)c(OC)c3)oc2c1.[Sn]', 'inactive');

###

Listed here are compounds together with their documented TGI.
System: OVCAR-8 ovarian
PROTOCOL NOTES: NCI tumour cell line growth inhibition, 48 h
OBSERVABLE: TGI

INSERT INTO results (compound, observable, reported_value) VALUES
  ('Cc1sc2nc3n(c(=O)c2c1C)N=C(c1ccccc1)CS3', 'TGI', '> 100 µM'),
  ('CCOC(=O)[C@@]12NN=N[C@@H]1[C@H]1CO[C@H](c3ccccc3)N1C2=O', 'TGI', '23.7 µM'),
  ('Nc1ccn(CCCC(c2ccccc2)P(=O)(O)O)c(=O)n1 (stereo unspecified)', 'TGI', '> 100 µM'),
  ('O=Cc1cn(S(=O)(=O)c2ccccc2)c2ccccc12', 'TGI', '> 100 µM'),
  ('CCN(CC)CC(O)c1cc(-c2ccc(Cl)cc2)nc2cc(Cl)ccc12 (stereo unspecified)', 'TGI', '4.12 µM'),
  ('Cc1cc2nc3c4cc([N+](=O)[O-])ccc4n(CCN(C)C)c3nc2cc1C', 'TGI', '> 88 µM');

###

Test system: M19-MEL melanoma
PROTOCOL NOTES: NCI tumour cell line growth inhibition, 48 h
Listed here are compounds together with their documented TGI.
OBSERVABLE: TGI

INSERT INTO results (compound, observable, reported_value) VALUES
  ('COc1cc(=O)oc(/C=C/CO)c1C', 'TGI', '> 100 µM'),
  ('COc1cccc2c1C(=O)c1c(O)c3c(c(O)c1C2=O)CC(O)(C(C)=O)CC3O (stereo not given)', 'TGI', '15.7 µM'),
  ('O=c1sc(-c2nc3ccccc3[nH]2)c(/N=C/c2ccccc2)n1-c1ccccc1', 'TGI', '> 100 µM'),
  ('C1C[S][Ge]2([S]CCS1)[S]CCSCC[S]2', 'TGI', '> 100 µM'),
  ('COc1cc(CC2C(=O)OCC2[C@@H](OC(C)=O)c2ccc3c(c2)OCO3)c(Br)c(OC)c1OC (stereo not given in full)', 'TGI', '> 100 µM');

###

Listed here are molecules together with their documented TGI.
Tested on: UACC-62 melanoma
PROTOCOL NOTES: NCI tumour cell line growth inhibition, 48 h
OBSERVABLE: TGI

INSERT INTO results (molecule, study_target, reported_value) VALUES
  ('O=C(NCCCl)NCc1ccccc1', 'UACC-62 melanoma', '> 100 µM'),
  ('COc1cc(/C=C/c2ccc(S(N)(=O)=O)cc2)cc(OC)c1', 'UACC-62 melanoma', '30.3 µM'),
  ('COC(=O)C1=C(C)NC2=C(C(=O)c3ccccc32)C1c1cn[nH]c1-c1ccccc1 (stereo not drawn)', 'UACC-62 melanoma', '> 100 µM');

###

System: SF-295 CNS
PROTOCOL NOTES: NCI tumour cell line growth inhibition, 48 h
Listed here are compounds together with their documented GI50.
OBSERVABLE: GI50

INSERT INTO assay_data (compound_string, study_target, reported_value) VALUES
  ('CN1CCN(Cn2nc(-c3cc(F)c(Cl)cc3Cl)oc2=S)CC1', 'SF-295 CNS', '42.4 µM'),
  ('CCCCCCn1c2c(c3c(O)cccc31)C(=O)c1ccccc1-2', 'SF-295 CNS', '21 µM'),
  ('O=C1Nc2c(ccc(Cl)c2Cl)/C1=C\c1cc(C(F)(F)F)cc(C(F)(F)F)c1', 'SF-295 CNS', '1.92 µM'),
  ('CCOC(=O)Nc1cc(-c2ccc(C)c(NS(C)(=O)=O)c2)nn2c(C)nnc12', 'SF-295 CNS', '1.85 µM');

###

Tested on: NCI/ADR-RES ovarian
PROTOCOL NOTES: NCI tumour cell line growth inhibition, 48 h
Listed here are molecules together with their documented TGI.
OBSERVABLE: TGI (µM)

INSERT INTO measurements (molecule, inequality_sign, reported_value) VALUES
  ('N#Cc1c(O)c(C=O)c(=O)n2c1[nH]c1ccccc12', '>', 100),
  ('O=C1Nc2c(ccc(Cl)c2Cl)/C1=C\c1cc(C(F)(F)F)cc(C(F)(F)F)c1', '=', 14.8),
  ('NCCCCCCCCCn1c2c(c3ccccc3c1=O)C(=O)c1ccccc1-2', '=', 22.4),
  ('O=C(c1cccnc1)N1N=C(c2ccc3c(c2)OCO3)CC1(O)c1cc(F)c(Cl)cc1Cl (stereo not given)', '=', 50.4),
  ('COc1ccc2nc3c([N+](=O)[O-])ccc(NCCCN(C)C)c3c(N)c2c1', '=', 4.25),
  ('O=C(Nc1ccc(Cl)cc1)c1cc2ccccc2cc1OP(=O)(O)O', '>', 100),
  ('Nc1nc(-c2ccc3ccccc3c2)cc(-c2cc(-c3ccc4ccccc4c3)nc(N)n2)n1', '>', 100),
  ('O=C(NCCC1CN(S(=O)(=O)C(F)(F)F)c2ccccc21)OCc1ccccc1 (stereo not given)', '>', 100),
  ('COC(=O)[C@@H](NC(=O)c1ccc(CNC(=O)/C(C)=C/c2ccccc2)cc1)C(C)C', '>', 100),
  ('COc1cc(/C=C/C2=NN(c3cccc(S(=O)(=O)O)c3)C3(C2)SCC(=O)N3c2nc3ccccc3s2)cc(OC)c1OC (stereo not given)', '>', 100);

###

Test system: SF-268 CNS
PROTOCOL NOTES: NCI tumour cell line growth inhibition, 48 h
OBSERVABLE: TGI (µM)

INSERT INTO measurements (compound, observable, inequality_sign, reported_value) VALUES
  ('CSCC(COC(C)=O)(CSC)c1ccncc1', 'TGI', '>', 100),
  ('[Au+].c1c[n-]cn1.c1ccc([PH+](c2ccccc2)c2ccccc2)cc1', 'TGI', '=', 28.3),
  ('COc1ccccc1[C@@H]1CCC2CC[C@@H](c3ccccc3OC)[N+]21Cc1ccccc1 (some centres not stated)', 'TGI', '=', 17.4),
  ('C=C(C)C1CCC2(C(=O)O)CCC3(C)C(CCC4C5(C)CCC(O)C(C)(C)C5CCC43C)C12 (configuration not stated)', 'TGI', '=', 28.7),
  ('N#CCN1CCCN(CC#N)CCN(CC#N)CCCN(CC#N)CC1', 'TGI', '>', 100),
  ('COc1cccc2c1C(=O)c1c(O)c3c(c(O)c1C2=O)CC(O)(C(C)=O)CC3O (configuration not stated)', 'TGI', '=', 31.9),
  ('COc1ccc(NC(=O)C2=CC(=O)c3ccc(O)cc3C2=O)c(OC)c1', 'TGI', '>', 100),
  ('O=Cc1cn(S(=O)(=O)c2ccccc2)c2ccccc12', 'TGI', '>', 100),
  ('Cc1cc(Cl)ccc1Nc1nc2c(s1)C(=O)c1ccccc1C2=O', 'TGI', '=', 11.3),
  ('O=C(O)c1c[nH]c2c(ccc3[nH]cc(C(=O)O)c(=O)c32)c1=O', 'TGI', '>', 100),
  ('CN(C)C1(c2cc3ccccc3s2)CCCCC1', 'TGI', '=', 52),
  ('CC1(C)OC2OC(C(=O)c3ccccc3)C3OC(C)(C)OC3C2O1 (configuration not stated)', 'TGI', '>', 100),
  ('O=C1C(c2c(O)[nH]c3ccc(I)cc23)=Nc2ccccc21', 'TGI', '=', 17.2),
  ('O=C(Nc1ccc(Cl)cc1)c1cc2ccccc2cc1OP(=O)(O)O', 'TGI', '=', 40),
  ('CCCCCCn1c2c(c3c(O)cccc31)C(=O)c1ccccc1-2', 'TGI', '=', 40.5),
  ('COc1cc(CC2C(=O)OCC2[C@@H](OC(C)=O)c2ccc3c(c2)OCO3)c(Br)c(OC)c1OC (some centres not stated)', 'TGI', '>', 100),
  ('O=C1c2ccccc2C(=O)c2c(NCC3CO3)cccc21 (configuration not stated)', 'TGI', '=', 17.9),
  ('CCCCC1N=CNc2c1ccc1c2[nH]c2ccccc21 (configuration not stated)', 'TGI', '=', 29.4),
  ('COc1cc(CC(=O)c2cc3c(cc2-c2ccccc2)OCO3)cc(OC)c1OC', 'TGI', '>', 100),
  ('CCc1n[nH]c(=O)n1N=C(c1ccccc1)c1ccccc1', 'TGI', '>', 100),
  ('CC(=O)CC12NC(=O)N(C)N=C1N(C)C(=O)N(C)C2=O (configuration not stated)', 'TGI', '>', 100),
  ('CCOC(=O)Nc1cc(-c2ccc(C)c(NS(C)(=O)=O)c2)nn2c(C)nnc12', 'TGI', '>', 100);
